Here the recorded viability, T/C is given for each entry.
Test system: 941728-121-R-J1-PDC complex spheroid viability
assayNotes: Anticancer human tumor 941728-121-R-J1-PDC patient-derived lung adenocarcinoma cell line growth inhibition [RAS]
experimentalConditions: second compound 0.00949 µM; first compound 10 µM; stronger effect = lower value

Use the examples below as a reference point.
- molecule: "CCC(CC)c1cc(NC2CCC(N)C2)n2nccc2n1 (centres undefined) + CCn1c(-c2cc(N3CCN(C)CC3)cnc2C(C)OC)c2c3cc(ccc31)-c1csc(n1)CC(NC(=O)C1CC1C)C(=O)N1CCCC(N1)C(=O)OCC(C)(C)C2"
  observedResult: "41.5%"
- molecule: "CCC(CC)c1cc(NC2CCC(N)C2)n2nccc2n1 (centres undefined) + CCn1c(-c2cccnc2C(C)OC)c2c3cc(ccc31)N1CCOC(CC(NC(=O)C(C(C)C)N(C)C(=O)C3(F)CCN(C(=O)C#CC(C)(C)N(C)C)CC3)C(=O)N3CCCC(N3)C(=O)OCC(C)(C)C2)C1"
  observedResult: "40.9%"
- molecule: "CC(Nc1ccc2c(c1)OCCn1cc(N3C(=O)OCC3C(F)F)nc1-2)C(N)=O (centres undefined) + CCn1c(-c2cccnc2C(C)OC)c2c3cc(ccc31)N1CCOC(CC(NC(=O)C(C(C)C)N(C)C(=O)C3(F)CCN(C(=O)C#CC(C)(C)N(C)C)CC3)C(=O)N3CCCC(N3)C(=O)OCC(C)(C)C2)C1"
  observedResult: "11.7%"

Please examine the following record next.
*Q* Record lookup: for 941728-121-R-J1-PDC complex spheroid viability, what viability, T/C belongs to Cc1nc(N2CCC3(CC2)COC(C)C3N)c(CO)nc1Sc1ccnc(N)c1Cl (centres undefined) + CCn1c(-c2cc(N3CCN(C)CC3)cnc2C(C)OC)c2c3cc(ccc31)-c1csc(n1)CC(NC(=O)C1CC1C)C(=O)N1CCCC(N1)C(=O)OCC(C)(C)C2 ?
*A* 11%

###

System: 941728-121-R-J1-PDC complex spheroid viability
assayNotes: Anticancer human tumor 941728-121-R-J1-PDC cell line growth inhibition [RAS];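 note: spheroids exposed to compounds for 7 days before readout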
experimentalConditions: curve of first compound; second compound 0.316 µM
Attribute: IC50

- compound: "CC1(O)CCCC1n1c(=O)c(C(F)F)cc2cnc(NC3CCN(S(C)(=O)=O)CC3)nc21 (stereo not given) + C#Cc1c(F)ccc2cc(O)cc(-c3ncc4c(N5CC6CCC(C5)N6)nc(OCC56CCCN5CC(F)C6)nc4c3F)c12"
  IC50: "> 10000 nM"
- compound: "NC1c2ccccc2OC12CCN(c1cnc3c(N4CCCc5ncccc54)n[nH]c3n1)CC2 (stereo not given) + C=CC(=O)N1CCN(c2nc(OCC3CCCN3C)nc3c(F)c(-c4nc(N)cc(C)c4C(F)(F)F)c(Cl)cc23)C(C)C1"
  IC50: "< 31.6 nM"
- compound: "O=C(c1ccc(F)c(F)c1Nc1ccc(I)cc1F)N1CC(O)([C@@H]2CCCCN2)C1 + C=CC(=O)N1CCN(c2nc(OCC3CCCN3C)nc3c(F)c(-c4nc(N)cc(C)c4C(F)(F)F)c(Cl)cc23)C(C)C1"
  IC50: "< 3.16 nM"

*Q* What does the data say about its IC50? Entry: CCC(CC)c1cc(NC2CCC(N)C2)n2nccc2n1 (stereo not given) + C#Cc1c(F)ccc2cc(O)cc(-c3ncc4c(N5CC6CCC(C5)N6)nc(OCC56CCCN5CC(F)C6)nc4c3F)c12
*A* 1470 nM

*Q* Follow-up item: CC(Nc1ccc2c(c1)OCCn1cc(N3C(=O)OCC3C(F)F)nc1-2)C(N)=O (stereo not given) + C=CC(=O)N1CCN(c2nc(OCC3CCCN3C)nc3c(F)c(-c4nc(N)cc(C)c4C(F)(F)F)c(Cl)cc23)C(C)C1
*A* < 31.6 nM

###

Test system: 941728-121-R-J1-PDC complex spheroid viability
assayNotes: Anticancer human tumor 941728-121-R-J1-PDC cell line growth inhibition [RAS];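 note: spheroids exposed to compounds for 7 days before readout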;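 for viability, T/C: 100% = DMSO vehicle control viability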
experimentalConditions: second compound 1 µM; first compound 0.0316 µM; stronger effect = lower value
From the text: RAS pathway inhibitors in Combinations in Complex Spheroids A high-throughput screen of multi-cell type tumor spheroids was designed to identify active combinations of RAS pathway inhibitors and targeted small molecules. Complex spheroids include a stromal component modeled by human endothelial cells (HUVEC) and fibroblasts modeled by human mesenchymal stem cells (MSCs). […] Compounds. […] If the clinical Cmax for an agent had not been determined, the highest concentration tested was 10 microM. […]
// returns FALSE unless viability, T/C is strictly below 20%, in which case TRUE

Record excerpt, results attached:
- compound: "NC1c2ccccc2OC12CCN(c1cnc3c(N4CCCc5ncccc54)n[nH]c3n1)CC2 (centres undefined) + C=CC(=O)N1CCN(c2nc(OCC3CCCN3C)nc3c(F)c(-c4nc(N)cc(C)c4C(F)(F)F)c(Cl)cc23)C(C)C1"
  classAssignment: "TRUE"
- compound: "CC1(O)CCCC1n1c(=O)c(C(F)F)cc2cnc(NC3CCN(S(C)(=O)=O)CC3)nc21 (centres undefined) + C=CC(=O)N1CCN(c2nc(OCC3CCCN3C)nc3c(F)c(-c4nc(N)cc(C)c4C(F)(F)F)c(Cl)cc23)C(C)C1"
  classAssignment: "FALSE"
- compound: "CC(Nc1ccc2c(c1)OCCn1cc(N3C(=O)OCC3C(F)F)nc1-2)C(N)=O (centres undefined) + C=CC(=O)N1CCN(c2nc(OCC3CCCN3C)nc3c(F)c(-c4nc(N)cc(C)c4C(F)(F)F)c(Cl)cc23)C(C)C1"
  classAssignment: "TRUE"
- compound: "CC(C)n1nc(-c2ccc3oc(N)nc3c2)c2c(N)ncnc21 + C=CC(=O)N1CCN(c2nc(OCC3CCCN3C)nc3c(F)c(-c4nc(N)cc(C)c4C(F)(F)F)c(Cl)cc23)C(C)C1"
  classAssignment: "TRUE"
- compound: "CCC(CC)c1cc(NC2CCC(N)C2)n2nccc2n1 (centres undefined) + C#Cc1c(F)ccc2cc(O)cc(-c3ncc4c(N5CC6CCC(C5)N6)nc(OCC56CCCN5CC(F)C6)nc4c3F)c12"
  classAssignment: "FALSE"
- compound: "Cc1nc(N2CCC3(CC2)COC(C)C3N)c(CO)nc1Sc1ccnc(N)c1Cl (centres undefined) + C#Cc1c(F)ccc2cc(O)cc(-c3ncc4c(N5CC6CCC(C5)N6)nc(OCC56CCCN5CC(F)C6)nc4c3F)c12"
  classAssignment: "FALSE"
- compound: "CC(=O)OC12COC1CC(O)C1(C)C(=O)C(O)C3=C(C)C(OC(=O)C(O)C(NC(=O)OC(C)(C)C)c4ccccc4)CC(O)(C(OC(=O)c4ccccc4)C21)C3(C)C (centres undefined) + C=CC(=O)N1CCN(c2nc(OCC3CCCN3C)nc3c(F)c(-c4nc(N)cc(C)c4C(F)(F)F)c(Cl)cc23)C(C)C1"
  classAssignment: "TRUE"
- compound: "C=CC(=O)N1CCN(c2nc(OCC3CCCN3C)nc3c(F)c(-c4nc(N)cc(C)c4C(F)(F)F)c(Cl)cc23)C(C)C1 (centres undefined) + C#Cc1c(F)ccc2cc(O)cc(-c3ncc4c(N5CC6CCC(C5)N6)nc(OCC56CCCN5CC(F)C6)nc4c3F)c12"
  classAssignment: "FALSE"
- compound: "CC(C)NCC(C(=O)N1CCN(c2ncnc3c2C(C)CC3O)CC1)c1ccc(Cl)cc1 (centres undefined) + C=CC(=O)N1CCN(c2nc(OCC3CCCN3C)nc3c(F)c(-c4nc(N)cc(C)c4C(F)(F)F)c(Cl)cc23)C(C)C1"
  classAssignment: "TRUE"
- compound: "C[C@@H](NC(=O)c1ncnc(N)c1Cl)c1ncc(C(=O)Nc2cc(C(F)(F)F)c(Cl)cn2)s1 + C#Cc1c(F)ccc2cc(O)cc(-c3ncc4c(N5CC6CCC(C5)N6)nc(OCC56CCCN5CC(F)C6)nc4c3F)c12"
  classAssignment: "FALSE"

Proceed to the following item.
*Q* For CC1(O)CCCC1n1c(=O)c(C(F)F)cc2cnc(NC3CCN(S(C)(=O)=O)CC3)nc21 (centres undefined) + C#Cc1c(F)ccc2cc(O)cc(-c3ncc4c(N5CC6CCC(C5)N6)nc(OCC56CCCN5CC(F)C6)nc4c3F)c12 , is the recorded viability, T/C below the cut-off of 20%?
*A* FALSE

###

IC50 values by entry
Tested on: 941728-121-R-J1-PDC complex spheroid viability
assayNotes: Anticancer human tumor 941728-121-R-J1-PDC cell line growth inhibition [RAS];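 note: spheroids exposed to compounds for 7 days before readout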
experimentalConditions: curve of first compound; second compound 0.3 µM

Recorded IC50, per entry:
- compound: "C=CC(=O)N1CCN(c2nc(OCC3CCCN3C)nc3c(F)c(-c4nc(N)cc(C)c4C(F)(F)F)c(Cl)cc23)C(C)C1 (centres undefined) + CCn1c(-c2cc(N3CCN(C)CC3)cnc2C(C)OC)c2c3cc(ccc31)-c1csc(n1)CC(NC(=O)C1CC1C)C(=O)N1CCCC(N1)C(=O)OCC(C)(C)C2"
  IC50: "< 3.16 nM"
- compound: "CC1(C)CCC(Nc2ncc(C(F)(F)F)c(-c3c[nH]c4c(P(C)(C)=O)c(C#N)ccc34)n2)CN1 (centres undefined) + CCn1c(-c2cc(N3CCN(C)CC3)cnc2C(C)OC)c2c3cc(ccc31)-c1csc(n1)CC(NC(=O)C1CC1C)C(=O)N1CCCC(N1)C(=O)OCC(C)(C)C2"
  IC50: "< 0.949 nM"
- compound: "CC(Nc1ccc2c(c1)OCCn1cc(N3C(=O)OCC3C(F)F)nc1-2)C(N)=O (centres undefined) + CCn1c(-c2cccnc2C(C)OC)c2c3cc(ccc31)N1CCOC(CC(NC(=O)C(C(C)C)N(C)C(=O)C3(F)CCN(C(=O)C#CC(C)(C)N(C)C)CC3)C(=O)N3CCCC(N3)C(=O)OCC(C)(C)C2)C1"
  IC50: "< 31.6 nM"

// moving on: another record for IC50
*Q* Which IC50 is reported with 941728-121-R-J1-PDC complex spheroid viability for this entry: CC(C)NCC(C(=O)N1CCN(c2ncnc3c2C(C)CC3O)CC1)c1ccc(Cl)cc1 (centres undefined) + CCn1c(-c2cc(N3CCN(C)CC3)cnc2C(C)OC)c2c3cc(ccc31)-c1csc(n1)CC(NC(=O)C1CC1C)C(=O)N1CCCC(N1)C(=O)OCC(C)(C)C2 ?
*A* < 31.6 nM
